Reported k−2 values for the following molecules.
# system tested: VIM-2 (Pseudomonas aeruginosa, UniProt Q9K2N0)
# Construct: made in house; host or cells: E. coli BL21(DE3) pLys, plasmid pET-24a(+)-blaVIM-2-S21
# assay notes: BTZ inhibition kinetics of nitrocefin hydrolysis by VIM-2
# Type: biochemical, P. aeruginosa
# test parameters: rate constant for breakdown of E*I

Consider the following illustrative entries.
molecule: O=C(O)[C@H]1CS[C@@H]2CS[C@@H](CS)N12
system tested: VIM-2 (Pseudomonas aeruginosa, UniProt Q9K2N0)
measured property: k−2
result: 0.0003 ± 1 × 10^−4 s^−1

molecule: CC1(C)SC2CSC(CS)N2C1C(=O)O [L-VC26]
system tested: VIM-2 (Pseudomonas aeruginosa, UniProt Q9K2N0)
measured property: k−2
result: 0.001 ± 1 × 10^−3 s^−1

molecule: CC1(C)SC2CSC(CS)N2C1C(=O)O [D-VC26]
system tested: VIM-2 (Pseudomonas aeruginosa, UniProt Q9K2N0)
measured property: k−2
result: 0.0006 ± 4 × 10^−4 s^−1

Now examine the next entry.
Task: What value of k−2 has been recorded for this entry: "O=C(O)[C@@H]1CS[C@H]2CS[C@H](CS)N21"
Result: 0.0003 ± 1 × 10^−4 s^−1

====

# Tested on: E. coli pBC SK(−)
# assay notes: MIC by agar dilution, E. coli DH10B host with empty phagemid
# Format: cell-based
# test parameters: Escherichia coli, MHA
Reported MIC values for the following molecules.
In your response, the unit should come after the numeric value.

molecule: CO/N=C(\C(=O)N[C@@H]1C(=O)N2C(C(=O)O)=C(CSc3nc(=O)c(=O)[nH]n3C)CS[C@H]12)c1csc(N)n1 [Ceftriaxone]
system tested: E. coli pBC SK(−)
MIC: 0.5 mg/L

molecule: CO/N=C(\C(=O)N[C@@H]1C(=O)N2C(C(=O)O)=C(COC(C)=O)CS[C@H]12)c1csc(N)n1 [Cefotaxime]
system tested: E. coli pBC SK(−)
MIC: 0.06 mg/L

molecule: CO/N=C(\C(=O)N[C@@H]1C(=O)N2C(C(=O)[O-])=C(C[N+]3(C)CCCC3)CS[C@H]12)c1csc(N)n1 [Cefepime]
system tested: E. coli pBC SK(−)
MIC: 0.03 mg/L

molecule: CC1(C)S[C@@H]2[C@H](NC(=O)[C@H](N)c3ccccc3)C(=O)N2[C@H]1C(=O)O [Ampicillin]
system tested: E. coli pBC SK(−)
MIC: 4 mg/L

molecule: CC(C)(O/N=C(\C(=O)N[C@@H]1C(=O)N2C(C(=O)[O-])=C(C[n+]3ccccc3)CS[C@H]12)c1csc(N)n1)C(=O)O [Ceftazidime]
system tested: E. coli pBC SK(−)
MIC: 0.06 mg/L

molecule: C[C@@H](O)[C@H]1C(=O)N2C(C(=O)O)=C(SCCN=CN)C[C@H]12 [Imipenem]
system tested: E. coli pBC SK(−)
MIC: 0.25 mg/L

Task: What value of MIC has been recorded for this entry: CC(=O)OCC1=C(C(=O)O)N2C(=O)[C@@H](NC(=O)Cc3cccs3)[C@H]2SC1 [Cephalothin]
Result: 8 mg/L

====

Reported Ki values for the following molecules.
# system tested: VIM-2 (Pseudomonas aeruginosa)
# Construct: made in house; host or cells: E. coli BL21(DE3) pLys, plasmid pET-24a(+)-blaVIM-2-S21
# assay notes: BTZ inhibition kinetics of nitrocefin hydrolysis by VIM-2
# Assay type: biochemical, P. aeruginosa
# test parameters: initial complex EI, NCF as reporter substrate
Supply the numeric figure in µM, leaving out any unit text.

Consider the following illustrative entries.
molecule: CC1(C)SC2CSC(CS)N2C1C(=O)O [D-VC26]
system tested: VIM-2 (Pseudomonas aeruginosa)
reading unit: µM
Ki: 14
--
molecule: CC1(C)SC2CSC(CS)N2C1C(=O)O [L-VC26]
system tested: VIM-2 (Pseudomonas aeruginosa)
reading unit: µM
Ki: 3.8
--
molecule: O=C(O)[C@H]1CS[C@@H]2CS[C@@H](CS)N12 [D-CS319]
system tested: VIM-2 (Pseudomonas aeruginosa)
reading unit: µM
Ki: 5.4

Now examine the next entry.
Task: What value of Ki has been recorded for this entry: O=C(O)[C@@H]1CS[C@H]2CS[C@H](CS)N21 [L-CS319]
Result: 3.7

====

# Test system: E. coli DH10B pBCSK(−) producing VIM-24 (R228L)
# assay notes: MIC by agar dilution, E. coli DH10B producing VIM-24
# Assay type: cell-based
# test parameters: Escherichia coli, MHA, read-out: MIC
Reported MIC values for the following compounds.
In your response, the unit should come after the numeric value.

Consider the following illustrative entries.
compound: CO/N=C(\C(=O)N[C@@H]1C(=O)N2C(C(=O)O)=C(COC(C)=O)CS[C@H]12)c1csc(N)n1 [Cefotaxime]
system tested: E. coli DH10B pBCSK(−) producing VIM-24 (R228L)
result: 16 µg/mL
//
compound: CC1(C)S[C@@H]2[C@H](NC(=O)[C@H](N)c3ccccc3)C(=O)N2[C@H]1C(=O)O [Ampicillin]
system tested: E. coli DH10B pBCSK(−) producing VIM-24 (R228L)
result: 512 µg/mL
//
compound: CO/N=C(\C(=O)N[C@@H]1C(=O)N2C(C(=O)O)=C(CSc3nc(=O)c(=O)[nH]n3C)CS[C@H]12)c1csc(N)n1 [Ceftriaxone]
system tested: E. coli DH10B pBCSK(−) producing VIM-24 (R228L)
result: 8 µg/mL

Task: What value of MIC has been recorded for this entry: C[C@@H](O)[C@H]1C(=O)N2C(C(=O)O)=C(SCCN=CN)C[C@H]12 [Imipenem]
Result: 0.5 µg/mL

====

Reported MIC values for the following molecules.
# Test system: E. coli DH10B pBCSK(−) producing R228K variant
# assay notes: MIC by agar dilution, E. coli DH10B producing VIM-2 R228K
# Format: cell-based
# test parameters: Escherichia coli, MHA
In your response, the unit should come after the numeric value.

Consider the following illustrative entries.
molecule: CC(C)(O/N=C(\C(=O)N[C@@H]1C(=O)N2C(C(=O)[O-])=C(C[n+]3ccccc3)CS[C@H]12)c1csc(N)n1)C(=O)O
measured property: MIC
result: 1 µg/mL
--
molecule: CO/N=C(\C(=O)N[C@@H]1C(=O)N2C(C(=O)[O-])=C(C[N+]3(C)CCCC3)CS[C@H]12)c1csc(N)n1 [Cefepime]
measured property: MIC
result: 0.5 µg/mL
--
molecule: CO/N=C(\C(=O)N[C@@H]1C(=O)N2C(C(=O)O)=C(COC(C)=O)CS[C@H]12)c1csc(N)n1
measured property: MIC
result: 1 µg/mL
--
molecule: CC1(C)S[C@@H]2[C@H](NC(=O)[C@H](N)c3ccccc3)C(=O)N2[C@H]1C(=O)O
measured property: MIC
result: 32 µg/mL
--
molecule: CC(=O)OCC1=C(C(=O)O)N2C(=O)[C@@H](NC(=O)Cc3cccs3)[C@H]2SC1
measured property: MIC
result: 16 µg/mL
--
molecule: C[C@@H](O)[C@H]1C(=O)N2C(C(=O)O)=C(SCCN=CN)C[C@H]12
measured property: MIC
result: 0.25 µg/mL

Now examine the next entry.
Task: What value of MIC has been recorded for this entry: "CO/N=C(\C(=O)N[C@@H]1C(=O)N2C(C(=O)O)=C(CSc3nc(=O)c(=O)[nH]n3C)CS[C@H]12)c1csc(N)n1"
Result: 1 µg/mL

====

Reported k2 values for the following compounds.
# system tested: VIM-2 (Pseudomonas aeruginosa, UniProt Q9K2N0)
# Construct: made in house; host or cells: E. coli BL21(DE3) pLys, plasmid pET-24a(+)-blaVIM-2-S21
# assay notes: BTZ inhibition kinetics of nitrocefin hydrolysis by VIM-2
# Type: biochemical, P. aeruginosa
# test parameters: rate constant for formation of E*I

compound: O=C(O)[C@H]1CS[C@@H]2CS[C@@H](CS)N12
result: 0.01 ± 1 × 10^−3 s^−1
--
compound: CC1(C)SC2CSC(CS)N2C1C(=O)O [D-VC26]
result: 0.09 ± 4 × 10^−3 s^−1
--
compound: O=C(O)[C@@H]1CS[C@H]2CS[C@H](CS)N21
result: 0.03 ± 1 × 10^−3 s^−1

Task: What value of k2 has been recorded for this entry: CC1(C)SC2CSC(CS)N2C1C(=O)O [L-VC26]
Result: 0.02 ± 1 × 10^−3 s^−1

====

# Tested on: E. coli DH10B pBCSK(−) producing VIM-2 (228R)
# assay notes: MIC by agar dilution, E. coli DH10B producing VIM-2
# Assay type: cell-based
# test parameters: Escherichia coli, MHA, read-out: MIC
Reported MIC values for the following compounds.
Supply the numeric figure in µg/mL, leaving out any unit text.

Consider the following illustrative entries.
chemical string: CO/N=C(\C(=O)N[C@@H]1C(=O)N2C(C(=O)O)=C(COC(C)=O)CS[C@H]12)c1csc(N)n1
MIC, µg/mL: 8
--
chemical string: CO/N=C(\C(=O)N[C@@H]1C(=O)N2C(C(=O)O)=C(CSc3nc(=O)c(=O)[nH]n3C)CS[C@H]12)c1csc(N)n1
MIC, µg/mL: 8
--
chemical string: C[C@@H](O)[C@H]1C(=O)N2C(C(=O)O)=C(SCCN=CN)C[C@H]12
MIC, µg/mL: 0.5

Now examine the next entry.
Task: What value of MIC has been recorded for this entry: "CC1(C)S[C@@H]2[C@H](NC(=O)[C@H](N)c3ccccc3)C(=O)N2[C@H]1C(=O)O"
Result: 512

All values here come from patent US10251869B2.
